Data provenance: ChEMBL document CHEMBL3988442

SYSTEM: Tyrosyl-tRNA synthetase, putative (Trypanosoma cruzi (strain CL Brener))
METHOD SUMMARY: Trypanosoma cruzi tyrosyl tRNA synthetase (TcYRS) _High Tyrosine SOP; also: in the data most compounds retested in dose-response had high values
Type: functional
Parameters: scale not given: direction of the effect not stated beside the values
MEASUREMENT SETUP: 30 µM
Kindly state Percent Effect for each of the entries shown.
Unit % implied. Number only.

Problem: Quote Percent Effect with test system Tyrosyl-tRNA synthetase, putative (Trypanosoma cruzi (strain CL Brener)) for Cc1noc(C(C)C)c1C(=O)NCCN1CCCCCC1=O
Solution: 6.86

Problem: Quote Percent Effect with test system Tyrosyl-tRNA synthetase, putative (Trypanosoma cruzi (strain CL Brener)) for CN1CCCn2c(nc(CNC(=O)c3ccsc3)cc2=O)C1
Solution: 1.58

Problem: Quote Percent Effect with test system Tyrosyl-tRNA synthetase, putative (Trypanosoma cruzi (strain CL Brener)) for CC(C)NC(=O)N1CCC2(CC(=O)N(c3cccc(C#N)c3)C2)C1 (stereo not drawn)
Solution: -0.526

Problem: Quote Percent Effect with test system Tyrosyl-tRNA synthetase, putative (Trypanosoma cruzi (strain CL Brener)) for CC(C)(C)C(O)CN1CCN(C(=O)c2cccc3ncccc23)CC1 (stereo not drawn)
Solution: 3.35

Problem: Quote Percent Effect with test system Tyrosyl-tRNA synthetase, putative (Trypanosoma cruzi (strain CL Brener)) for Cc1cc(-c2nn(C)c(Cl)c2CN2Cc3ccccc3C(O)C2)no1 (stereo not drawn)
Solution: 3.72

Problem: Quote Percent Effect with test system Tyrosyl-tRNA synthetase, putative (Trypanosoma cruzi (strain CL Brener)) for COc1ccc(CN2CCC3(CC2)CCN(CC2CC2)C3=O)cc1
Solution: 4.83

Problem: Quote Percent Effect with test system Tyrosyl-tRNA synthetase, putative (Trypanosoma cruzi (strain CL Brener)) for Cc1nc(CN2CCO[C@@H]3CN(C(=O)NC(C)C)CC[C@@H]3C2)cs1
Solution: 3.68

Problem: Quote Percent Effect with test system Tyrosyl-tRNA synthetase, putative (Trypanosoma cruzi (strain CL Brener)) for COc1ccc(OC)c(Sc2ncccc2C(=O)N(C)CCC#N)c1
Solution: 4.83

Problem: Quote Percent Effect with test system Tyrosyl-tRNA synthetase, putative (Trypanosoma cruzi (strain CL Brener)) for CCCNC(=O)c1cc2c(c3ccccc3n2C)n1C(=O)N(C)C
Solution: 2.63

Problem: Quote Percent Effect with test system Tyrosyl-tRNA synthetase, putative (Trypanosoma cruzi (strain CL Brener)) for CC(=O)N1C[C@@H](c2ccsc2)[C@@H]2CN(Cc3ccccc3)CC[C@@H]21
Solution: 10.6

Problem: Quote Percent Effect with test system Tyrosyl-tRNA synthetase, putative (Trypanosoma cruzi (strain CL Brener)) for Fc1ccc(CN2CCC(c3n[nH]c4ncccc34)CC2)cc1F
Solution: -4.23

Problem: Quote Percent Effect with test system Tyrosyl-tRNA synthetase, putative (Trypanosoma cruzi (strain CL Brener)) for Cc1noc(C(C)C)c1C(=O)NCCCN1CCCC1
Solution: 7.84

Problem: Quote Percent Effect with test system Tyrosyl-tRNA synthetase, putative (Trypanosoma cruzi (strain CL Brener)) for Cc1cnc(CN2CCCC2c2noc(C)n2)cn1 (stereo not drawn)
Solution: 11.1

Problem: Quote Percent Effect with test system Tyrosyl-tRNA synthetase, putative (Trypanosoma cruzi (strain CL Brener)) for Cn1ccnc1CN1CCCC1c1noc(C2CC2)n1 (stereo not drawn)
Solution: 5.79

Problem: Quote Percent Effect with test system Tyrosyl-tRNA synthetase, putative (Trypanosoma cruzi (strain CL Brener)) for CN(CC(=O)Nc1ccc(Br)cn1)C(=O)Cc1ccc(O)cc1
Solution: 3.68

Problem: Quote Percent Effect with test system Tyrosyl-tRNA synthetase, putative (Trypanosoma cruzi (strain CL Brener)) for CCn1ccnc1CN1CCN(CC(O)c2ccccc2)CC1 (stereo not drawn)
Solution: 1.44

Problem: Quote Percent Effect with test system Tyrosyl-tRNA synthetase, putative (Trypanosoma cruzi (strain CL Brener)) for COCCc1ncc(CN2CCC(Oc3ccccc3C)CC2)cn1
Solution: 6.35

Problem: Quote Percent Effect with test system Tyrosyl-tRNA synthetase, putative (Trypanosoma cruzi (strain CL Brener)) for O=C(c1ccc2c(c1)OCO2)N1CCN(c2cnccn2)CC1
Solution: 5.26

Problem: Quote Percent Effect with test system Tyrosyl-tRNA synthetase, putative (Trypanosoma cruzi (strain CL Brener)) for O=C(NCc1cc[nH]n1)NCC(O)c1ccc(F)cc1F (stereo not drawn)
Solution: 5.79

Problem: Quote Percent Effect with test system Tyrosyl-tRNA synthetase, putative (Trypanosoma cruzi (strain CL Brener)) for Cc1ncc(-c2ccnc(N3CCN(C)CC3)n2)c(-c2cccnc2)n1
Solution: 4.74

Problem: Quote Percent Effect with test system Tyrosyl-tRNA synthetase, putative (Trypanosoma cruzi (strain CL Brener)) for Cc1cncc(C2CCCN(C(=O)c3cccn3C)C2)n1 (stereo not drawn)
Solution: 7.41

Problem: Quote Percent Effect with test system Tyrosyl-tRNA synthetase, putative (Trypanosoma cruzi (strain CL Brener)) for CN(Cc1ccccc1)C(=O)c1nc(S(C)(=O)=O)n2ccccc12
Solution: 1.44

Problem: Quote Percent Effect with test system Tyrosyl-tRNA synthetase, putative (Trypanosoma cruzi (strain CL Brener)) for CNC(=O)COc1ccccc1CNC1CCc2ncnn2C1 (stereo not drawn)
Solution: 6.22

Problem: Quote Percent Effect with test system Tyrosyl-tRNA synthetase, putative (Trypanosoma cruzi (strain CL Brener)) for CNc1cc(N2CCCC2CNCc2cnc(C)cn2)ncn1 (stereo not drawn)
Solution: 2.39

Problem: Quote Percent Effect with test system Tyrosyl-tRNA synthetase, putative (Trypanosoma cruzi (strain CL Brener)) for CC(=O)NC1CCCN(C(=O)NCc2cccnc2-n2cccn2)C1 (stereo not drawn)
Solution: 5.79

Problem: Quote Percent Effect with test system Tyrosyl-tRNA synthetase, putative (Trypanosoma cruzi (strain CL Brener)) for CC[C@@H]1N(Cc2ccsc2)CCC[C@]12CCC(=O)N2CCOC
Solution: 7.73

Problem: Quote Percent Effect with test system Tyrosyl-tRNA synthetase, putative (Trypanosoma cruzi (strain CL Brener)) for N#Cc1ccccc1C(=O)N1C[C@H](CO)C[C@H](CN2CCCC2)C1
Solution: 2.66

Problem: Quote Percent Effect with test system Tyrosyl-tRNA synthetase, putative (Trypanosoma cruzi (strain CL Brener)) for CCc1nc(C2CCCN2C(=O)c2ccoc2C)no1 (stereo not drawn)
Solution: -0.478

Problem: Quote Percent Effect with test system Tyrosyl-tRNA synthetase, putative (Trypanosoma cruzi (strain CL Brener)) for OC(COCc1ccccc1F)CN1CCc2c(ncn2C2CC2)C1 (stereo not drawn)
Solution: 2.63

Problem: Quote Percent Effect with test system Tyrosyl-tRNA synthetase, putative (Trypanosoma cruzi (strain CL Brener)) for Cc1cccc(CN2C(=O)CCC23CCN(c2ncc(F)cn2)CC3)n1
Solution: 11.6

Problem: Quote Percent Effect with test system Tyrosyl-tRNA synthetase, putative (Trypanosoma cruzi (strain CL Brener)) for Cc1cnn(C2CCCN(C(=O)c3sccc3C#N)C2)c1 (stereo not drawn)
Solution: 0.478

Problem: Quote Percent Effect with test system Tyrosyl-tRNA synthetase, putative (Trypanosoma cruzi (strain CL Brener)) for CC(C)CNc1nc(C(=O)/N=c2\[nH]nc(C(C)(C)C)s2)cs1
Solution: 5.85

Problem: Quote Percent Effect with test system Tyrosyl-tRNA synthetase, putative (Trypanosoma cruzi (strain CL Brener)) for Cc1cc(NC(=O)C(C)N2CCCN(c3nccs3)CC2)on1 (stereo not drawn)
Solution: 0.478

* * *

SYSTEM: Ubiquitin-activating enzyme e1, putative (Leishmania donovani (strain BPK282A1)) (UniProt E9BSI1)
Sequence (whole entry): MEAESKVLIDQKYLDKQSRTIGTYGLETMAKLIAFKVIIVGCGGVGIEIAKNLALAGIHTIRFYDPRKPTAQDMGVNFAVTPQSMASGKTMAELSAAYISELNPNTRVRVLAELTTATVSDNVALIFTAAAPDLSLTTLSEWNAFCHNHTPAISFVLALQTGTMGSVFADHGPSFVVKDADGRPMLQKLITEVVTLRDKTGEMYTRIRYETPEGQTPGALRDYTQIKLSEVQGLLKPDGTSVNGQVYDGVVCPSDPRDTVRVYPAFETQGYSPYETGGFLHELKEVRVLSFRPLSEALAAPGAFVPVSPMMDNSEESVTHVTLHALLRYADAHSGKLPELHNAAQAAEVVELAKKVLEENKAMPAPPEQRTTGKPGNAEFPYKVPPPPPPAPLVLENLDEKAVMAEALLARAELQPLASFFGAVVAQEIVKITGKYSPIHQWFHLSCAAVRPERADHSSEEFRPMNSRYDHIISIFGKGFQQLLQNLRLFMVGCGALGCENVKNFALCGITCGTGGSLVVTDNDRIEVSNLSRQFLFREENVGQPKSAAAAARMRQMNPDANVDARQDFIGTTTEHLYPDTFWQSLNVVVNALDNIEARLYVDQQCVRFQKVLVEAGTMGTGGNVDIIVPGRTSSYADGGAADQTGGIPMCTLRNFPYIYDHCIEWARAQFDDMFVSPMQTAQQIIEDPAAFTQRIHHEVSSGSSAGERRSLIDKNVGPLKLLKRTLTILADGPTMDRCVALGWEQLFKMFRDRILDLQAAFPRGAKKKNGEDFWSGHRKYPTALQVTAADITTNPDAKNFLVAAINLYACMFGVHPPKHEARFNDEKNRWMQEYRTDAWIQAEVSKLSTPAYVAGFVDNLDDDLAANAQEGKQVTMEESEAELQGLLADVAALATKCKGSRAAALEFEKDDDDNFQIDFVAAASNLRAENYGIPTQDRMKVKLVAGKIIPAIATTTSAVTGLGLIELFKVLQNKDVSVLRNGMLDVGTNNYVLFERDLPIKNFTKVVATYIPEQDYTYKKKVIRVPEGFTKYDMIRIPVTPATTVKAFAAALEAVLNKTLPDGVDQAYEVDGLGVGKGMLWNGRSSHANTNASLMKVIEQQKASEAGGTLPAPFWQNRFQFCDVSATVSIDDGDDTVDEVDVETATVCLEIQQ
METHOD SUMMARY: Leishmania donovani Ubiquitin Activating Enzyme (LdE1)
Type: functional
Design: scale not given: direction of the effect not stated beside the values
MEASUREMENT SETUP: 30 µM
Potency and affinity values are given separately.
VALUE KIND: Percent Effect
A complete answer gives the number followed by the unit.

Problem: Check the records and state Percent Effect for Cc1noc(C(C)C)c1C(=O)NCCN1CCCCCC1=O
Solution: 20.8%

Problem: Check the records and state Percent Effect for CNc1cc(C2CCCN2C(=O)c2ccc3oc(=O)n(C)c3c2)ccn1 (configuration not stated)
Solution: 14.7%

Problem: Check the records and state Percent Effect for CCc1ccsc1C(=O)N1CCN(C(=O)CC(F)(F)F)CC1
Solution: 18.2%

Problem: Check the records and state Percent Effect for Cn1cc(C(=O)N2CCC(Cc3nccs3)CC2)cn1
Solution: 6.67%

Problem: Check the records and state Percent Effect for Cc1ccn(-c2cccc(C(=O)N3CCCC(n4ccnc4C)C3)c2)n1 (configuration not stated)
Solution: 7.79%

Problem: Check the records and state Percent Effect for CC(C)n1ccnc1CN1CCCN(C(=O)c2nccnc2N)CC1
Solution: 7.69%

Problem: Check the records and state Percent Effect for CN1CCN(CCO)C(=O)C12CCN(Cc1ccsc1)CC2
Solution: 9.09%
